Where do the numbers come from? From patent US20200031805A1.

So I've got a bunch of molecules here, and I need their IC50 values.
Target: aryl hydrocarbon receptor (AhR) (Homo sapiens)
Construct: The HepG2 CYP1A1-Luc cells do express basal luciferase activity that can be increased via potent AhR agonists or decreased via potent AhR antagonists; endogenous in cells
Sequence (P35869 11-848): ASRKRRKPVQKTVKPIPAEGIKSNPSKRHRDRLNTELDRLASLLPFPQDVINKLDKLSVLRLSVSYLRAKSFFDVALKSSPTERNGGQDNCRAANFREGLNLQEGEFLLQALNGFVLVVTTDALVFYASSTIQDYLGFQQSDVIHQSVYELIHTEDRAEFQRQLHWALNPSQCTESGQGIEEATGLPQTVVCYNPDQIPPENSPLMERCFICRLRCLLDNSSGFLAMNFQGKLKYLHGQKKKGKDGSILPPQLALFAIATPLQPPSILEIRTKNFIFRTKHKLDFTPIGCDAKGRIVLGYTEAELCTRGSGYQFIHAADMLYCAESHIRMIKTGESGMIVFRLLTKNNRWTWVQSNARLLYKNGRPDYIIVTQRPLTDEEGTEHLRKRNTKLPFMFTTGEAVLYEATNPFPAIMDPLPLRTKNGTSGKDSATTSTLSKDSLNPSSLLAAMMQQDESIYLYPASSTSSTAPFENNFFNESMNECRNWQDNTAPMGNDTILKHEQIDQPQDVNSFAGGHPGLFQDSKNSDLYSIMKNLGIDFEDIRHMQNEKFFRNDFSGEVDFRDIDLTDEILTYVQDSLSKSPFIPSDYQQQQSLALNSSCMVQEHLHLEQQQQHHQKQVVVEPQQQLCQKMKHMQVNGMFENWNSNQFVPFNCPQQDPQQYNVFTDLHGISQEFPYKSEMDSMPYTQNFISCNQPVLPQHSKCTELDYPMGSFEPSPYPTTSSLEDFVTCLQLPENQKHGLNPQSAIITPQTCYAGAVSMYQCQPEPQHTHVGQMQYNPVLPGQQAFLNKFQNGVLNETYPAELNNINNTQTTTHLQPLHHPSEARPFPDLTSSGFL
Test: AhR direct luciferase reporter assay in HepG2 cells (HepG2 CYP1A1-LUC)
Conditions: luciferase activity after 18 hours, no exogenous AhR agonist or 10 nM VAF347, read-out: AhR potency (AhR antagonistic potency, IC50)
Description: AhR Direct Luciferase Reporter Assay in HepG2 Cells. […] Cells are further cultivated for 18 hours and luciferase activities are determined from extracts of cells in buffers containing D-Luciferine and ATP using a LUMIstar Optima microplate Luminometer from BMG Labtech.

Hello, I would appreciate it if you could give IC50 for each entry below.
1. Cn1ncnc1C(=O)Nc1ccc2cc(-c3cc(Cl)ccc3C(F)(F)F)[nH]c2c1
2. Cn1nccc1C(=O)Nc1ccc2cc(-c3cc(Cl)ccc3C(F)(F)F)[nH]c2c1
3. Cn1nccc1C(=O)Nc1ccc2cc(-c3ccccc3C(F)(F)F)[nH]c2c1
4. Cc1cc2cc(-c3ccccc3C(F)(F)F)[nH]c2cc1NC(=O)c1ccccn1

1. < 100 nM
2. < 100 nM
3. < 100 nM
4. < 100 nM

Hello, I would appreciate it if you could give IC50 for each entry below.
1. Cc1ccccc1-c1cc2ccc(NC(=O)c3ccccn3)cc2[nH]1
2. Cn1ncnc1C(=O)Nc1ccc2cc(-c3ccccc3C(F)(F)F)[nH]c2c1
3. Cc1ccccc1-c1cc2ccc(NC(=O)c3ccnn3C(C)C)cc2[nH]1
4. Cc1ccccc1-c1cc2ccc(NC(=O)c3cccn3C)cc2[nH]1
5. Cc1ccccc1-c1cc2ccc(NC(=O)c3ccn[nH]3)cc2[nH]1
6. Cn1nccc1C(=O)Nc1ccc2cc(-c3ccccc3Cl)[nH]c2c1

< 100 nM
< 100 nM
> 1000 nM
< 100 nM
100 to 1000 nM
100 to 1000 nM

Hello, I would appreciate it if you could give IC50 for each entry below.
1. Cc1ccccc1-c1cc2ccc(NC(=O)c3ccc(O)c(C(N)=O)c3)cc2[nH]1
2. Cn1ncnc1C(=O)Nc1ccc2cc(-c3ccccc3C(F)F)[nH]c2c1
3. Cn1nccc1C(=O)Nc1ccc2cc(-c3cccc(Cl)c3)[nH]c2c1
4. O=C(Nc1ccc2cc(-c3ccccc3C(F)(F)F)[nH]c2c1)c1ccccn1
5. Cn1ncnc1C(=O)Nc1ccc2cc(-c3cc(F)ccc3C(F)F)[nH]c2c1
6. Cn1nccc1C(=O)Nc1ccc2cc(-c3ccccc3F)[nH]c2c1
7. Cc1cc2cc(-c3ccccc3C(F)(F)F)[nH]c2cc1NC(=O)c1ncnn1C

["> 1000 nM", "< 100 nM", "100 to 1000 nM", "< 100 nM", "< 100 nM", "100 to 1000 nM", "< 100 nM"]

Hello, I would appreciate it if you could give IC50 for each entry below.
1. Cc1ccccc1-c1cc2ccc(NC(=O)c3ncnn3C)cc2[nH]1
2. Cn1nccc1C(=O)Nc1ccc2cc(-c3cc(F)ccc3C(F)F)[nH]c2c1
3. Cn1nccc1C(=O)Nc1ccc2cc(-c3ccccc3C(F)F)[nH]c2c1
4. Cn1nccc1C(=O)Nc1ccc2cc(-c3ccc(Cl)cc3Cl)[nH]c2c1

1: < 100 nM; 2: < 100 nM; 3: < 100 nM; 4: 100 to 1000 nM

Field: IC50 (aryl hydrocarbon receptor (AhR) (Homo sapiens)). Entry: Cc1ccccc1-c1cc2ccc(NC(=O)c3ccco3)cc2[nH]1 < 100 nM
